Test: A CellTox Green Cytotoxicity Assay to monitor cytotoxicity in HEK293 cells - 8 hour (AID 1224884); also: nearly all actives have a fitted effect of over 35% in size
Conditions: CellTox Green fluorescence; series mostly up to 76.8 µM
Results filed as inconclusive are left out. Calls of active or inactive are those of the source. Calls follow the shape of the dose curve; as a rule, active = well fitted activation curve with a large enough effect in the repeat runs; inconclusive = weak or mixed curves; inactive = flat fitted curve, though single readings scatter.
Give your call using only these classes: active, inactive

Q: Assay outcome for O=C1NC(=O)C(=O)C(=O)N1 : what was it?
A: inactive

Q: Assay outcome for CCCCOC(=O)CCC(=O)OCCCC : what was it?
A: inactive

Q: Assay outcome for NNCCO : what was it?
A: inactive

---

Test: qHTS assay to identify small molecule antagonists of the estrogen receptor alpha (ER-alpha) signaling pathway using the BG1 cell line in the presence of 0.1 nM 17-beta-estradiol - cell viability counter screen (AID 1259241); also: nearly all actives have a fitted effect of over 40% in size
Settings: VM7Luc4E2 (BG1) viability, CellTiter-Fluor protease, 22 h, 0.1 nM estradiol agonist added; series mostly up to 92.4 µM
Inconclusive results are not listed. Calls of active or inactive are those of the source. Calls follow the shape of the dose curve; as a rule, active = well fitted cell-killing curve with a large enough effect in the repeat runs; inconclusive = weak or mixed curves, or effect the other way; inactive = flat fitted curve, though single readings scatter.
Give your call using only these classes: active, inactive

# count of solved cases: 5
- MOLECULE: "CCOC(=O)C1OC1(C)c1ccccc1 (stereo unspecified)"
  DISCRETE LABEL: "inactive"
- MOLECULE: "O=C(CCl)CCl"
  DISCRETE LABEL: "inactive"
- MOLECULE: "CCCN(CCOc1c(Cl)cc(Cl)cc1Cl)C(=O)n1ccnc1"
  DISCRETE LABEL: "inactive"
- MOLECULE: "C1CS1"
  DISCRETE LABEL: "inactive"
- MOLECULE: "CC(C)OC(=O)Cc1ccccc1"
  DISCRETE LABEL: "inactive"

Q: Assay outcome for CCc1ccccc1N : what was it?
A: inactive

Q: Assay outcome for O=C(O)c1cc(I)cc(I)c1I : what was it?
A: inactive

Q: Assay outcome for O=C(N[C@H]1CN2CCC1CC2)c1ccc2c(c1)OCCO2 : what was it?
A: inactive

Q: Assay outcome for O=C([O-])c1ccccn1.O=C([O-])c1ccccn1.O=C([O-])c1ccccn1.[Cr+3] : what was it?
A: inactive

Q: Assay outcome for CC(=O)OC(c1ccccc1)C(Cl)(Cl)Cl (stereo unspecified) : what was it?
A: inactive

Q: Assay outcome for COC1=CC(=O)O[C@@H](/C=C/c2ccc3c(c2)OCO3)C1 : what was it?
A: inactive

---

Assay: qHTS assay for small molecules that induce genotoxicity in human embryonic kidney cells expressing luciferase-tagged ATAD5 (AID 651632); also: nearly all actives have a fitted effect of over 15% in size
Details: HEK293T ATAD5-luciferase induction, 16 h; series mostly up to 83.3 µM
Records with an inconclusive call do not appear. Activity calls are given as the source filed them. The call rests on the fitted dose curve; in most records, active means well fitted activation curve with a large enough effect in the repeat runs; inconclusive means weak or mixed curves; inactive means no such curve, though single readings can be large or run the other way.
RESULT TYPE: activation

Completed entries (count: 4):
- COMPOUND: "COC(=O)C1(O)c2ccccc2-c2ccccc21"
  activation: "inactive"
- COMPOUND: "CN1CC[C@]23c4c5ccc(O)c4O[C@H]2[C@@H](O)CC[C@H]3[C@H]1C5"
  activation: "inactive"
- COMPOUND: "c1ccc2c(c1)sc1ccccc12"
  activation: "inactive"
- COMPOUND: "CC(C)c1ccc(NC(=O)N(C)C)cc1"
  activation: "inactive"

Consider C=C(C)C(=O)OCCCCOC(=O)C(=C)C . Its measured activation is inactive

Consider O=C(O)C(O)C(O)C(=O)O (configuration not stated) . Its measured activation is inactive

Consider O=C(O)c1cc(I)cc(I)c1I . Its measured activation is inactive

---

Biological target: Cytochrome P450 2C19 (Homo sapiens)
Experiment: Cytochrome P450 Family 2 Subfamily C Member 19 (CYP2C19) small molecule antagonists: luciferase reporter qHTS assay (AID 1671197); also: nearly all actives have a fitted effect of over 65% in size
Settings: P450-Glo CYP2C19 enzyme, luciferin luminescence, 1 h; series mostly up to 115 µM
Results filed as inconclusive are left out. Activity calls are given as the source filed them. Calls follow the shape of the dose curve; as a rule, active = well fitted inhibition curve with a large enough effect in the repeat runs; inconclusive = weak or mixed curves; inactive = no such curve, though single readings can be large or run the other way.
Give your call using only these classes: true (1) = active, false (0) = inactive

- MOLECULE: "CCOC(C(=O)OCCN(C)C)(c1ccccc1)c1ccccc1"
  DISCRETE LABEL: "true (1)"
- MOLECULE: "Clc1ccc2ccccc2c1"
  DISCRETE LABEL: "false (0)"
- MOLECULE: "COc1ccc(C(=O)c2c(C)n(CCN3CCOCC3)c3ccccc23)cc1"
  DISCRETE LABEL: "true (1)"
- MOLECULE: "C1CCNCC1"
  DISCRETE LABEL: "false (0)"
- MOLECULE: "Nc1cc(Cl)cc(C(=O)O)c1Cl"
  DISCRETE LABEL: "false (0)"
- MOLECULE: "N#CC1(N=NC2(C#N)CCCCC2)CCCCC1"
  DISCRETE LABEL: "true (1)"

Q: Assay outcome for Cc1nc(N(C)C)nc(OC(=O)N(C)C)c1C : what was it?
A: true (1)

Q: Assay outcome for NNCCO : what was it?
A: false (0)

Q: Assay outcome for CC(C)(C#N)C(C)(C)C#N : what was it?
A: false (0)

Q: Assay outcome for COC1CC(=C(c2cccs2)c2cccs2)C[N+](C)(C)C1 (stereo not given) : what was it?
A: false (0)

Q: Assay outcome for O=C1NC(=O)C(=O)C(=O)N1 : what was it?
A: false (0)

Q: Assay outcome for CCc1cnc(C2=NC(C)(C(C)C)C(=O)N2)c(C(=O)O)c1 (stereo not given) : what was it?
A: false (0)

Q: Assay outcome for CC[N+]1(CCOC(=O)C(O)(c2ccccc2)c2ccccc2)CCCCC1 : what was it?
A: false (0)

Q: Assay outcome for CCNC(=O)NC(=O)/C(C#N)=N/OC : what was it?
A: false (0)

Q: Assay outcome for COC(=O)C1(O)c2ccccc2-c2ccccc21 : what was it?
A: true (1)

Q: Assay outcome for C=CCc1ccc(OC(=O)Cc2ccccc2)c(OC)c1 : what was it?
A: true (1)

Q: Assay outcome for COC(=O)Cc1ccccc1 : what was it?
A: false (0)

Q: Assay outcome for C1CS1 : what was it?
A: false (0)

---

Experiment: qHTS assay to identify small molecule antagonists of the vitamin D receptor (VDR) signaling pathway - cell viability counter screen (AID 743225); also: nearly all actives have a fitted effect of over 50% in size
Details: VDR-bla HEK293T viability, CellTiter-Glo luminescence, 16 h; series mostly up to 61 µM
Records with an inconclusive call do not appear. Active and inactive are the calls of the source. Calls follow the shape of the dose curve; as a rule, active = well fitted cell-killing curve with a large enough effect in the repeat runs; inconclusive = weak or mixed curves, or effect the other way; inactive = no such curve, though single readings can be large or run the other way.
RESULT TYPE: outcome

Completed entries (count: 10):
- COMPOUND: "CCC1(C2=NCCN2)Cc2ccccc2O1 (configuration not stated)"
  outcome: "inactive"
- COMPOUND: "Cc1ccc2c(C)cccc2c1"
  outcome: "inactive"
- COMPOUND: "C[N+]1(CCF)[C@@H]2CC[C@H]1CC(OC(=O)C(O)(c1ccccc1)c1ccccc1)C2 (some centres not stated)"
  outcome: "inactive"
- COMPOUND: "CN(C)C(=O)Nc1cccc(OC(=O)NC(C)(C)C)c1"
  outcome: "inactive"
- COMPOUND: "CC(O)CN1CCN(CC(=O)[O-])CCN(CC(=O)[O-])CCN(CC(=O)[O-])CC1.[Gd+3] (configuration not stated)"
  outcome: "inactive"
- COMPOUND: "O=C(O)C(O)C(O)C(=O)O (configuration not stated)"
  outcome: "inactive"
- COMPOUND: "O=C(O)c1cc(I)cc(I)c1I"
  outcome: "inactive"
- COMPOUND: "C=C(Cl)Cl"
  outcome: "inactive"
- COMPOUND: "CC[N+]1(C)CCCC(OC(=O)C(O)(c2ccccc2)c2ccccc2)C1 (configuration not stated)"
  outcome: "inactive"
- COMPOUND: "c1ccc2c(c1)-c1cccc3cccc-2c13"
  outcome: "inactive"

Consider Nc1c(Br)cc(Br)c2c1C(=O)c1ccccc1C2=O . Its measured outcome is inactive

Consider CCCCCBr . Its measured outcome is inactive

Consider CC(C)(C#N)C(C)(C)C#N . Its measured outcome is inactive

---

Target: Acetylcholinesterase (Homo sapiens)
Experiment: Acetylcholinesterase (AChE) small molecule antagonists: enzyme-based qHTS assay (AID 1347397); also: nearly all actives have a fitted effect of over 55% in size
Settings: AChE enzyme activity inhibition; series mostly up to 115 µM
Active and inactive are the calls of the source. Calls come from the whole dose curve.
Give your call using only these classes: t (active), f (inactive)

# count of solved cases: 4
- MOLECULE: "NP(N)(=O)NC(=O)c1ccc(F)cc1"
  TGT: "Acetylcholinesterase (Homo sapiens)"
  DISCRETE LABEL: "f"
- MOLECULE: "Clc1ccc2ccccc2c1"
  TGT: "Acetylcholinesterase (Homo sapiens)"
  DISCRETE LABEL: "f"
- MOLECULE: "O=C(O)C(Cl)(Cl)Br"
  TGT: "Acetylcholinesterase (Homo sapiens)"
  DISCRETE LABEL: "f"
- MOLECULE: "CCCCC(CC)COC(=O)c1c(Br)c(Br)c(Br)c(Br)c1C(=O)OCC(CC)CCCC (stereo unspecified)"
  TGT: "Acetylcholinesterase (Homo sapiens)"
  DISCRETE LABEL: "f"

Q: Assay outcome for COc1cc(CC#N)cc(OC)c1OC : what was it?
A: f

Q: Assay outcome for C[N+](C)(C)CC1CO1 (stereo unspecified) : what was it?
A: f

Q: Assay outcome for CCCC[P+](CC)(CCCC)CCCC (tested in a mixture with another compound) : what was it?
A: f

Q: Assay outcome for CC(C)(C)NCC(O)c1cc(Cl)c(N)c(C(F)(F)F)c1 (stereo unspecified) : what was it?
A: f

Q: Assay outcome for C=CCc1ccc(OC(=O)Cc2ccccc2)c(OC)c1 : what was it?
A: f

src = PubChem BioAssay (Tox21)
